Tested on: Mycobacterium tuberculosis
Assay: Antimycobacterial activity against rifampicin-resistant Mycobacterium tuberculosis after 2 to 3 weeks by turbidity assay
Assay type: functional
PROPERTY_LABEL: MIC (mg/L)
# output: bare number, implied unit mg/L

Below: 3 compounds and their reported MIC.
O=C(NCc1ccccn1)c1sc2c([N+](=O)[O-])cc(C(F)(F)F)cc2[n+]1[O-]
0.03
COCCN1CCN(C(=O)c2nc3cc(C(F)(F)F)c(C)c([N+](=O)[O-])c3s2)CC1
1
Cc1c(C(F)(F)F)cc2nc(C(=O)N3CCCCC3)sc2c1[N+](=O)[O-]
0.5

## Input // fetch Mycobacterium tuberculosis MIC for O=C(NCc1ccccn1)c1nc2cc(C(F)(F)F)cc([N+](=O)[O-])c2s1
## Output 0.25
